system_under_test: MAT2A homodimer (Homo sapiens)
Construct: inferred from the Ni sepharose purification and imidazole elution; made in house; host or cells: SF9 insect cells, recombinant baculovirus (Bac to Bac, pFASTBAC1)
Sequence (P31153 whole entry): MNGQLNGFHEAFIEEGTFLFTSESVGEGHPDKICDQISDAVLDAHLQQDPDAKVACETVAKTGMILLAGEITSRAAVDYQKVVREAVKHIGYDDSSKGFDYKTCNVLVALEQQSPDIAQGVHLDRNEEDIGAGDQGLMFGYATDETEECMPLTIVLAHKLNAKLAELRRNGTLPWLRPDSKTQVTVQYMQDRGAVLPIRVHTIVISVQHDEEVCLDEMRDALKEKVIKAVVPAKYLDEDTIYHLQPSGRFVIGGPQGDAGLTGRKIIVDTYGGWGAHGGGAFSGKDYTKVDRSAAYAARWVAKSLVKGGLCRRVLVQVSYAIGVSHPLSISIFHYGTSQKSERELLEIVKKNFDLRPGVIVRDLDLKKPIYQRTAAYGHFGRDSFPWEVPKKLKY
test_summary: MAT2A biochemical assay (liberated phosphate, PiColorLock Gold)
experimental_conditions: Table 5a; MAT2A biochemical assay; read-out: Enzyme Inhibition
readout_name: IC50

COc1ccc(N2Cc3cnc(NCC(F)(F)F)nc3N(c3ccc(-c4cn[nH]c4)cc3)C2=O)cc1	0.1 to 1 µM
CCOc1ccc2c(n1)N(c1ccc(OC)cc1)C(=O)N(c1ccc(C#N)cc1)C2	1 to 10 µM

// switching to the query molecule
Input line: Tell me IC50 reported for COc1ccc(N2C(=O)N(c3ccc4ncccc4c3)Cc3cnc(NCC(F)(F)F)nc32)cc1
Output line: < 0.1 µM

====

system_under_test: MAT2A homodimer (Homo sapiens)
Construct: inferred from the Ni sepharose purification and imidazole elution; made in house; host or cells: SF9 insect cells, recombinant baculovirus (Bac to Bac, pFASTBAC1)
test_summary: MAT2A biochemical assay (liberated phosphate, PiColorLock Gold)
experimental_conditions: Table 5a; MAT2A biochemical assay; read-out: Enzyme Inhibition
Listed compounds paired with reported IC50

Some solved entries appear below for comparison.
COc1ccc(N2Cc3cnc(NCC(F)(F)F)nc3N(c3ccc(C#N)cc3)C2=O)cc1	1000 to 10000 nM
[2H]C([2H])([2H])Oc1ccc(N2C(=O)N(c3ccc4ncn(C)c4c3)Cc3ccc(OCC(F)F)nc32)cc1	< 100 nM
[2H]C([2H])([2H])Oc1ccc(N2C(=O)N(c3ccc4nn(C)cc4c3)Cc3cnc(NCC)nc32)cc1	< 100 nM
COC(=O)c1ccc(N2C(=O)N(c3ccc(OC)cc3)Cc3cnc(NCC(F)(F)F)nc32)cc1	100 to 1000 nM

Input line: Tell me IC50 reported for CCOc1cc2c(nn1)CN(c1ccc3nn(C)cc3c1)C(=O)N2c1ccc(OC(F)F)cc1
Output line: 1000 to 10000 nM

Input line: Tell me IC50 reported for CCOc1ccc2c(c1)N(c1ccc(OC(F)F)cc1)C(=O)N(c1ccc3nn(C)cc3c1)C2
Output line: < 100 nM

Input line: Tell me IC50 reported for COc1ccc(N2Cc3cnc(NCC4CC4)nc3N(c3ccc(OC)cc3)C2=O)cc1
Output line: 100 to 1000 nM

Input line: Tell me IC50 reported for COc1ccc(N2Cc3cnc(NCC(F)(F)F)nc3N(c3ccc(C)cc3)C2=O)cc1
Output line: 100 to 1000 nM

Input line: Tell me IC50 reported for COc1ccc(N2Cc3cnc(NCC(F)(F)F)nc3N(c3ccc(-c4cc[nH]c4)cc3)C2=O)cc1
Output line: 100 to 1000 nM

Input line: Tell me IC50 reported for Cn1cc2cc(N3Cc4cnc(NCC(F)(F)F)cc4N(c4ccc(OC(F)F)cc4)C3=O)ccc2n1
Output line: < 100 nM

Input line: Tell me IC50 reported for [2H]C([2H])([2H])Oc1ccc(N2C(=O)N(c3ccc4nn(CC(F)(F)F)cc4c3)Cc3ccc(OCC(F)F)nc32)cc1
Output line: < 100 nM

====

system_under_test: MAT2A homodimer (Homo sapiens)
Construct: inferred from the Ni sepharose purification and imidazole elution; made in house; host or cells: SF9 insect cells, recombinant baculovirus (Bac to Bac, pFASTBAC1)
test_summary: MAT2A biochemical assay (liberated phosphate, PiColorLock Gold)
experimental_conditions: Table 5a; MAT2A biochemical assay; read-out: Enzyme Inhibition
Listed compounds paired with reported IC50

Some solved entries appear below for comparison.
CCCc1ccc2c(n1)N(c1ccc(OC)cc1)C(=O)N(c1ccc3nn(C)cc3c1)C2	< 100 nM
Cn1cc2cc(N3Cc4cnc(NCC(F)(F)F)nc4N(c4ccc(-c5nc[nH]n5)cc4)C3=O)ccc2n1	< 100 nM
Cn1cc2cc(N3Cc4nnc(NCC(F)(F)F)cc4N(c4ccc(OC(F)F)cc4)C3=O)ccc2n1	100 to 1000 nM
CCOc1ccc2c(n1)N(c1ccc(OC(F)F)cc1)C(=O)N(c1ccc3nncn3c1)C2	< 100 nM
Cc1nc2ccc(N3Cc4cnc(NCC(F)(F)F)nc4N(c4ccc(OC(F)F)cc4)C3=O)cc2n1C	< 100 nM
CCOc1ccc2c(n1)N(c1ccc(OC)cc1)C(=O)N(c1ccc(F)cc1)C2	100 to 1000 nM
Cn1cc2cc(N3Cc4ccc(OCC(F)F)nc4N(c4ccc5[nH]ncc5c4)C3=O)ccc2n1	< 100 nM
COc1ccc(N2Cc3ccc(NCC(F)(F)F)nc3N(c3ccc(-c4ncn[nH]4)cc3)C2=O)cc1	< 100 nM
COc1ccc(N2C(=O)N(c3ccc(=O)n(C)c3)Cc3cnc(NCC(F)(F)F)nc32)cc1	100 to 1000 nM
[2H]C([2H])([2H])Oc1ccc(N2C(=O)N(c3ccc4nn(CCOC)cc4c3)Cc3ccc(OCC(F)F)nc32)cc1	< 100 nM

Input line: Please report IC50 with MAT2A homodimer (Homo sapiens) for item CCOc1ccc2c(n1)N(c1ccc(C3CC3)nc1)C(=O)N(c1ccc3nn(C)cc3c1)C2 .
Output line: < 100 nM
